Data origin: PubChem BioAssay AID1851

- TARGET OR TEST SYSTEM: Cytochrome P450 2D6 (Homo sapiens)
- ASSAY OVERVIEW: Cytochrome panel assay with activity outcomes; further: on the % scale 0 is the no-effect control and ±100 the full control effect
- DETAILS: recombinant CYP, pro-luciferin dealkylation, luminescence, p450-cyp2d6; series mostly up to 57.1 µM
The campaign covered roughly 16,000 compounds. About 2,600 (16%) were called active. Roughly 20% stayed inconclusive and do not appear here. A selection follows.
PROPERTY NAME: activity, negative = inhibition

Solved entries:
C[C@@H]1/C=C\CC(=O)OC[C@H](C)C(=O)N2CCC[C@@H]2C(=O)OC1 : 7.63% [at 11.4 µM] (inactive)
O=S(=O)(O)[C@@H](c1ccccc1)[C@@H](O)c1ccccc1 : 4.68% [at 11.4 µM] (inactive)
CCN1C(=O)[C@@H]2[C@H]3C(=CC[C@@H]2C1=O)C1(OCCCO1)[C@H]1O[C@@H]1[C@H]3O : -15.6% [at 11.4 µM] (inactive)
CC(C)(C)NC[C@@H](O)c1ccc(O)c(CO)n1 : -1.17% [at 11.4 µM] (inactive)
CC[C@](N)(C(=O)O)C(C)C : 10.5% [at 11.4 µM] (inactive)
CCOC(=O)c1c(O)[nH]c(=O)c(CC)c1C : -17.9% [at 11.4 µM] (inactive)

q: Bench note: what activity, negative = inhibition did OCCCNCc1ccccn1 show?
a: 12.8% [at 11.4 µM] (inactive)

q: Bench note: what activity, negative = inhibition did c1cncc(CNc2ncn[nH]2)c1 show?
a: 5.73% [at 11.4 µM] (inactive)

q: Bench note: what activity, negative = inhibition did O=C1C2=C(Nc3cc([N+](=O)[O-])ccc3N2)O[C@@H]1c1c[nH]c2ccc(COc3ccccc3)cc12 show?
a: 5.7% [at 11.4 µM] (inactive)

q: Bench note: what activity, negative = inhibition did CO[C@H]1COC(=O)C/C=C\[C@@H](C)COC(=O)[C@H]2CCCN2C(=O)C/C=C\[C@H]1C show?
a: -1.87% [at 11.4 µM] (inactive)

q: Bench note: what activity, negative = inhibition did C#CCCCO/N=C1/C[C@@H](O)[C@@H](O)[C@@H]2[C@@H]3C(=O)N([C@@H](C)c4ccccc4)C(=O)[C@H]3CC[C@H]12 show?
a: 12% [at 11.4 µM] (inactive)

q: Bench note: what activity, negative = inhibition did CC(C)=NOCc1ccc(-c2cc(-c3ccccc3)no2)cc1 show?
a: 1.27% [at 11.4 µM] (inactive)

q: Bench note: what activity, negative = inhibition did COc1ccc(CN[C@H](C)C(=O)O)cc1 show?
a: 6.89% [at 11.4 µM] (inactive)

q: Bench note: what activity, negative = inhibition did CC(C)(CC(=O)Nc1ccccc1)C(=O)O show?
a: 8.43% [at 11.4 µM] (inactive)

---

- TARGET OR TEST SYSTEM: Cytochrome P450 2D6 (Homo sapiens) (UniProt P10635)
- Sequence (P10635 whole entry, looked up): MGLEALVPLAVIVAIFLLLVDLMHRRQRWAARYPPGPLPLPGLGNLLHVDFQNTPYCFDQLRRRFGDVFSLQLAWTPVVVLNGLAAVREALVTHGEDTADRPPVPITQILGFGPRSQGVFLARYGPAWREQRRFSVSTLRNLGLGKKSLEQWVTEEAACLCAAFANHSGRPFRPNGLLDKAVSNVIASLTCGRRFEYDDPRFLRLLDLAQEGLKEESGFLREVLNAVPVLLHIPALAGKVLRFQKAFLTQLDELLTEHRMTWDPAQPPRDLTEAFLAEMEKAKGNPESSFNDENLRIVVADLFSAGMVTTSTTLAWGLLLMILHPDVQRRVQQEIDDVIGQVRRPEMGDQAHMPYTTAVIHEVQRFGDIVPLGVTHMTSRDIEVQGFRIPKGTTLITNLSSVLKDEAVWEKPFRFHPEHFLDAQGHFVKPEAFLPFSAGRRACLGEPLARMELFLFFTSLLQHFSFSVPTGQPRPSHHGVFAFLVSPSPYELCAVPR
- ASSAY OVERVIEW: Cytochrome panel assay with activity outcomes; further: on the % scale 0 is the no-effect control and ±100 the full control effect
- DETAILS: recombinant CYP, pro-luciferin dealkylation, luminescence, p450-cyp2d6; series mostly up to 57.1 µM
In all, about 16,000 compounds went through this assay and about 2,600 (16%) were called active. Another 20% or so got no clear call; they are omitted. Calls come from the whole dose curve; as a rule, active = well fitted curve in the direction sought with a large enough effect; inconclusive = small, poorly fitted or top-dose-only effect, or effect the other way; inactive = no such curve, though single readings can be large or run the other way. A selection follows.
The reply should be one of these categories: label 1 (active), label 0 (inactive)

Cc1nc2cnc(N3CCN(C)CC3)nc2n(C)c1=O : label 0
O=C(Nc1cccc(F)c1)/C(=C\c1ccco1)NC(=O)c1cccs1 : label 0
COc1ccc(NC(=O)COc2ccc(CNCCCN3CCOCC3)cc2OC)cc1 : label 0

Then this compound:
q: I would be grateful if you could indicate the recorded call for CC(C)C[C@H](NC(=O)[C@@H](O)[C@@H](N)Cc1ccccc1)C(=O)O .
a: label 0
